- Test system: NCI-H1993
- protocol_description: relative viability (nuclei count vs DMSO), 5 days (fraction); higher = more cells survive
- applied_conditions: first compound 8 µM
readout_label: relative viability

INSERT INTO results (molecule, result) VALUES
  ('CCCCCCCCCCCC1=C(O)C(=O)C=C(O)C1=O [Embelin] + CC1(C)CCC(c2ccc(Cl)cc2)=C(CN2CCN(c3ccc(C(=O)NS(=O)(=O)c4ccc(N[C@H](CCN5CCOCC5)CSc5ccccc5)c(S(=O)(=O)C(F)(F)F)c4)cc3)CC2)C1 [Navitoclax] (partner 0.5 µM)', 0.893),
  ('CCCCCCCCCCCC1=C(O)C(=O)C=C(O)C1=O [Embelin] + CC(=O)Nc1cccc(-n2c(=O)n(C3CC3)c(=O)c3c(Nc4ccc(I)cc4F)n(C)c(=O)c(C)c32)c1 [Trametinib] (partner 0.02 µM)', 0.498),
  ('CCCCCCCCCCCC1=C(O)C(=O)C=C(O)C1=O [Embelin] + N=C(N)NC(=N)NCCc1ccccc1 [Phenformin] (partner 250 µM)', 0.467),
  ('CCCCCCCCCCCC1=C(O)C(=O)C=C(O)C1=O [Embelin] + COc1cc2c(Oc3ccc(NC(=O)C4(C(=O)Nc5ccc(F)cc5)CC4)cc3F)ccnc2cc1OCCCN1CCOCC1 [Foretinib] (partner 0.25 µM)', 0.834);

Lab note: need relative viability for CCCCCCCCCCCC1=C(O)C(=O)C=C(O)C1=O [Embelin] + O=C(c1cc(Cc2n[nH]c(=O)c3ccccc23)ccc1F)N1CCN(C(=O)C2CC2)CC1 [Olaparib] (partner 8 µM) on NCI-H1993, anyone have it?
1.6

----------
- System: BEN
- protocol_description: relative viability (nuclei count vs DMSO), 5 days (fraction); higher = more cells survive
- applied_conditions: first compound 0.4 µM
In this section we review reported relative viability values for a set of compounds.
The response must contain the number and no unit.

INSERT INTO measurements (compound, readout_label, numeric_result) VALUES
  ('COc1cc(N2CCC(C(N)=O)CC2)ccc1Nc1nc(N)c(Cl)c(Nc2ccccc2S(=O)(=O)C(C)C)n1 [HG-5-88-01] + C[C@@H](Oc1cc(-c2cnn(C3CCNCC3)c2)cnc1N)c1c(Cl)ccc(F)c1Cl [Crizotinib] (partner 1 µM)', 'relative viability', 0.895);

Now for a further compound.
So what's the measured relative viability for this one? Clc1ccc(Nc2nnc(Cc3ccncc3)c3ccccc23)cc1 [Vatalanib] + NC(=O)Nc1cc(-c2cccc(F)c2)sc1C(=O)N[C@H]1CCCNC1 [AZD7762] (partner 0.2 µM)
0.596

----------
- Tested on: HOP-62
- protocol_description: relative viability (nuclei count vs DMSO), 5 days (fraction); higher = more cells survive
- applied_conditions: first compound 1.265 µM
readout_label: relative viability
The response must contain the number and no unit.

Before answering, review these 5 worked examples.
INSERT INTO results (compound, readout_label, numeric_result) VALUES
  ('Clc1ccc(Nc2nnc(Cc3ccncc3)c3ccccc23)cc1 [Vatalanib] + O=C(CCCCCCC(=O)Nc1ccccc1)NO [Vorinostat] (partner 1 µM)', 'relative viability', 0.597),
  ('COc1cc(N2CCC(C(N)=O)CC2)ccc1Nc1nc(N)c(Cl)c(Nc2ccccc2S(=O)(=O)C(C)C)n1 [HG-5-88-01] + N=C(N)NC(=N)NCCc1ccccc1 [Phenformin] (partner 250 µM)', 'relative viability', 0.725),
  ('Clc1ccc(Nc2nnc(Cc3ccncc3)c3ccccc23)cc1 [Vatalanib] + Nc1ncn([C@H]2C[C@H](O)[C@@H](CO)O2)c(=O)n1 [Decitabine] (partner 2 µM)', 'relative viability', 0.239),
  ('Clc1ccc(Nc2nnc(Cc3ccncc3)c3ccccc23)cc1 [Vatalanib] + CC(=O)Nc1cccc(-n2c(=O)n(C3CC3)c(=O)c3c(Nc4ccc(I)cc4F)n(C)c(=O)c(C)c32)c1 [Trametinib] (partner 0.02 µM)', 'relative viability', 0.367),
  ('Clc1ccc(Nc2nnc(Cc3ccncc3)c3ccccc23)cc1 [Vatalanib] + Nc1nc2[nH]cc(CCc3ccc(C(=O)N[C@@H](CCC(=O)O)C(=O)O)cc3)c2c(=O)[nH]1 [Pemetrexed] (partner 0.2 µM)', 'relative viability', 0.275);

Lab note: need relative viability for COc1cc(N2CCC(C(N)=O)CC2)ccc1Nc1nc(N)c(Cl)c(Nc2ccccc2S(=O)(=O)C(C)C)n1 [HG-5-88-01] + CC(=O)c1c(C)c2cnc(Nc3ccc(N4CCNCC4)cn3)nc2n(C2CCCC2)c1=O [Palbociclib] (partner 0.5 µM) on HOP-62, anyone have it?
0.501
